For each entry below, report its IC50 value.
biological target: Cathepsin S (Homo sapiens); experiment: Inhibition of human cathepsin S
Sequence (P25774 whole entry): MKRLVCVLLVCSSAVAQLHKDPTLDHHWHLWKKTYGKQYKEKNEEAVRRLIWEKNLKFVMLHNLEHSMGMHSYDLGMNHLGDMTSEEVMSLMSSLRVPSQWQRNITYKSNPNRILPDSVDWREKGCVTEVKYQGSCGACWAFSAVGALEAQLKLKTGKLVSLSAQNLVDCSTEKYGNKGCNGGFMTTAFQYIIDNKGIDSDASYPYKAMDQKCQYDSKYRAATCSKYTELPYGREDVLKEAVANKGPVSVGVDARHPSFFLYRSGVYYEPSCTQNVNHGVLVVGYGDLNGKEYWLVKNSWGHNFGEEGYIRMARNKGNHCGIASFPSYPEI
Note to self: number, then unit, no commentary.

>>> value_measured("COC(=O)c1sc2cc(F)ccc2c1C1CCN(CC(O)Cn2nc(-c3ccc(C(F)(F)F)cc3)c3c2CCN(C(C)=O)C3)CC1 (configuration not stated)")
"140 nM"
>>> value_measured("CS(=O)(=O)N1CCc2c(c(-c3ccc(C(F)(F)F)cc3)nn2CC(O)CN2CCC(c3csc4cc(F)ccc34)CC2)C1 (configuration not stated)")
"180 nM"
>>> value_measured("COC(=O)c1sc2cc(F)ccc2c1C1CCN(CCCn2nc(-c3ccc(C(F)(F)F)cc3)c3c2CCN(S(C)(=O)=O)C3)CC1")
"130 nM"
>>> value_measured("CS(=O)(=O)N1CCc2c(c(-c3ccc(Br)cc3)nn2CC(O)CN2CCC(c3c[nH]c4ccncc34)CC2)C1 (configuration not stated)")
"77 nM"
>>> value_measured("CC(=O)N1CCc2c(c(-c3ccc(C(F)(F)F)cc3)nn2CC(O)CN2CCC(c3csc4cc(F)ccc34)CC2)C1 (configuration not stated)")
"290 nM"

For each of the compounds below, state IC50.
1. Cn1c(=O)n(C2CCN(CCCn3nc(-c4ccc(Cl)c(Cl)c4)c4c3CCN(S(C)(=O)=O)C4)CC2)c2ccccc21
2. CC(=O)N1CCc2c(c(-c3ccc(C(F)(F)F)cc3)nn2CC(O)CN2CCC(c3c[nH]c4ccc(Cl)cc34)CC2)C1 (configuration not stated)

10 nM
95 nM

----------
Could you please report measured pIC50 for the items listed next?
target: Cathepsin S (Homo sapiens); assay: Inhibition of human cathepsin S
Answers are plain numbers, as −log10 of the molar value.

A selection of reference data follows.
>>> value_measured("N#Cc1ccccc1N1CCN(CC(Cn2nc(-c3ccc(I)cc3)c3c2CCN(C(N)=O)C3)OC(N)=O)CC1 (configuration not stated)")
8.00
>>> value_measured("CC(=O)N1CCc2c(c(-c3ccc(C(F)(F)F)cc3)nn2CC(O)CN2CCC(c3coc4cc(F)ccc34)CC2)C1 (configuration not stated)")
6.44
>>> value_measured("COC(=O)c1oc2cc(F)ccc2c1C1CCN(CC(O)Cn2nc(-c3ccc(C(F)(F)F)cc3)c3c2CCN(C(C)=O)C3)CC1 (configuration not stated)")
6.66
>>> value_measured("CN(C)C(=O)c1sc2cc(F)ccc2c1C1CCN(CCCn2nc(-c3ccc(C(F)(F)F)cc3)c3c2CCN(S(C)(=O)=O)C3)CC1")
6.43
>>> value_measured("CS(=O)(=O)N1CCc2c(c(-c3ccc(C(F)(F)F)cc3)nn2CC(O)CN2CCC(N3C(=O)COc4ccccc43)CC2)C1 (configuration not stated)")
8.00
>>> value_measured("CS(=O)(=O)N1CCc2c(c(-c3ccc(Br)cc3)nn2CC(O)CN2CCC(c3c[nH]c4ncccc34)CC2)C1 (configuration not stated)")
6.71

Consider now this further compound.
Returns the measured pIC50 for the input compound. Input: `CS(=O)(=O)N1CCc2c(c(-c3ccc(C(F)(F)F)cc3)nn2CCCN2CCC(c3c(C(=O)O)sc4cc(F)ccc34)CC2)C1`
7.00

----------
What pIC50 was measured for each of the following?
biological target: Cathepsin S (Homo sapiens); assay: Inhibition of cathepsin S in human JY cells by invariant chain degradation assay; assay type: cell-based
Give bare numbers, as −log10 of the molar value.

// solved cases for pIC50 follow
>>> value_measured("COC(=O)c1sc2cc(F)ccc2c1C1CCN(CCCn2nc(-c3ccc(C(F)(F)F)cc3)c3c2CCN(S(C)(=O)=O)C3)CC1")
5.74
>>> value_measured("CS(=O)(=O)N1CCc2c(c(-c3ccc(C(F)(F)F)cc3)nn2CC(O)CN2CCC(N3C(=O)COc4ccccc43)CC2)C1 (stereo unspecified)")
6.10
>>> value_measured("CS(=O)(=O)N1CCc2c(c(-c3ccc(Br)cc3)nn2CC(O)CN2CCC(c3c[nH]c4ccncc34)CC2)C1 (stereo unspecified)")
6.82
>>> value_measured("N#Cc1ccccc1N1CCN(CC(Cn2nc(-c3ccc(I)cc3)c3c2CCN(C(N)=O)C3)OC(N)=O)CC1 (stereo unspecified)")
6.10

Now, please, on to the next compound.
I have this compound here, `Cn1c(=O)n(C2CCN(CCCn3nc(-c4ccc(Cl)c(Cl)c4)c4c3CCN(S(C)(=O)=O)C4)CC2)c2ccccc21` , and I need its recorded pIC50.
6.10
